biological target: ATP5B protein; test: SPR, ATP5B amine-coupled to CM5 chip, peptide in flow at 50 ul/min; binding units relative to SEQ ID NO: 12
Sequence (P06576 48-529): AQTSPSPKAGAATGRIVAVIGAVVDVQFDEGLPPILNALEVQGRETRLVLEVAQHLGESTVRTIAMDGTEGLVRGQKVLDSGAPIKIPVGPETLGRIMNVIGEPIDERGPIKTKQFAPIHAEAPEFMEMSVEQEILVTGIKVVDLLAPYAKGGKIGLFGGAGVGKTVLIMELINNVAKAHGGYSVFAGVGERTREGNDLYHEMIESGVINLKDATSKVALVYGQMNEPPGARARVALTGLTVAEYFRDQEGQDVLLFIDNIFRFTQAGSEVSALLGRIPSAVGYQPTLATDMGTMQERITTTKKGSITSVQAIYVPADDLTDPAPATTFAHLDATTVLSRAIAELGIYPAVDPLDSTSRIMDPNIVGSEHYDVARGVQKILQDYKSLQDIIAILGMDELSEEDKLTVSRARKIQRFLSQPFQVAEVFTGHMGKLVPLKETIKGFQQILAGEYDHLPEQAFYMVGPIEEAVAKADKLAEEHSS
value-kind: Binding (%)
One number for each entry, in %.

Please review the entries below; each comes with its answer.
- binder: "VARGAGSIREAGGAFGKREQAEEERYFR [Shortened substance (8-35) amino acid Ala substituted (9)]"
  value-kind: "Binding (%)"
  observed: 91.6
- binder: "VDRGAGSIREAAGAFGKREQAEEERYFR [Shortened substance (8-35) amino acid Ala substituted (19)]"
  value-kind: "Binding (%)"
  observed: 89.6
- binder: "VDRGAGSIREAGGAAGKREQAEEERYFR [Shortened substance (8-35) amino acid Ala substituted (22)]"
  value-kind: "Binding (%)"
  observed: 94
- binder: "VDRGAGSIREAGGAFGKREQAEEERYAR [Shortened substance (8-35) amino acid Ala substituted (34)]"
  value-kind: "Binding (%)"
  observed: 92.1
- binder: "VDRGAGSIREAGGAFGKREQAEEERYFR [Shortened substance (8-35)]"
  value-kind: "Binding (%)"
  observed: 100
- binder: "VDRGAGSIREAGGAFGAREQAEEERYFR [Shortened substance (8-35) amino acid Ala substituted (24)]"
  value-kind: "Binding (%)"
  observed: 100

Could you now look at the following binder, please?
Input: Can you look up the measured Binding (%) of VDRGAGAIREAGGAFGKREQAEEERYFR [Shortened substance (8-35) amino acid Ala substituted (14)] for me?
Output: 98.8
